Listed here are compounds together with their documented IC50.
System Tested: PARP1 enzyme (Homo sapiens (Human), UniProt P09874)
Sequence (P09874 whole entry): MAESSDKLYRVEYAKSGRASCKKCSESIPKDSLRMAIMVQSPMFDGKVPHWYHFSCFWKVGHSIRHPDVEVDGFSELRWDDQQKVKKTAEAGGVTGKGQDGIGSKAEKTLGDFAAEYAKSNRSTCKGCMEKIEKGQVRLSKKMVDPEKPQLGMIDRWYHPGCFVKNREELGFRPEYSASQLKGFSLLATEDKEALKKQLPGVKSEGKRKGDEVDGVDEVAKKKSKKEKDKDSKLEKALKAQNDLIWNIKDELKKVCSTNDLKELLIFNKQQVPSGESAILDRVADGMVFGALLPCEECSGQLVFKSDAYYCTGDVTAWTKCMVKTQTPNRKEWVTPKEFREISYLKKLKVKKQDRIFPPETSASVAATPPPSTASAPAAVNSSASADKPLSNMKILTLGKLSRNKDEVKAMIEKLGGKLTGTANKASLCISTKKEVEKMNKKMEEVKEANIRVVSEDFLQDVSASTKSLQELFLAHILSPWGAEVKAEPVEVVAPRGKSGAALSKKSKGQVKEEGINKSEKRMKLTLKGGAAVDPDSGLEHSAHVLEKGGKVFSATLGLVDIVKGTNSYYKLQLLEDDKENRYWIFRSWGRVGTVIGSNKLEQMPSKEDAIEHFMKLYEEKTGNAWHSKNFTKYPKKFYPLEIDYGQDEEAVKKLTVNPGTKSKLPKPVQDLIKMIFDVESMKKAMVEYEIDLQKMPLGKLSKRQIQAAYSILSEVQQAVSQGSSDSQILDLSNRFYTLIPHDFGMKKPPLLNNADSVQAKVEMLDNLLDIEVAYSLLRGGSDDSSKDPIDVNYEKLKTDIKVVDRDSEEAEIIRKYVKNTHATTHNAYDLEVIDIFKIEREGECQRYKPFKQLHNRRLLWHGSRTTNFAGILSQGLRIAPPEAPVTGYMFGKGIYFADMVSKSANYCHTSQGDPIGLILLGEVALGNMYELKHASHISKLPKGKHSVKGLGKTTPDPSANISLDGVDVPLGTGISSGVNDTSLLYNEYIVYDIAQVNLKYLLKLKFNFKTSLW

>  <Compound>
O=c1[nH]nc2c3c(cc(F)cc13)NC(C1CCNC1)C2c1ccc(F)cc1F (centres unmarked) [Compound 0173A]

>  <Reading Unit>
nM

>  <IC50>
70

$$$$
>  <Compound>
C[C@H]1Nc2cc(F)cc3c(=O)[nH]nc(c23)[C@@H]1c1ccc(C#N)cc1F [Compound 0194A]

>  <Reading Unit>
nM

>  <IC50>
2

$$$$
>  <Compound>
N#Cc1ccc([C@H]2CNc3cc(F)cc4c(=O)[nH]nc2c34)c(F)c1 [Compound 0187B]

>  <Reading Unit>
nM

>  <IC50>
41

$$$$
>  <Compound>
O=c1[nH]nc2c3c(cc(F)cc13)N[C@@H]([C@H]1CCOC1)[C@@H]2c1ccc(F)cc1F [Compound 0115C]

>  <Reading Unit>
nM

>  <IC50>
252

$$$$
>  <Compound>
O=c1[nH]nc2c3c(cc(F)cc13)NC(C1CCOC1)C2c1ccccc1Cl (centres unmarked)

>  <Reading Unit>
nM

>  <IC50>
39

$$$$
>  <Compound>
Cn1ncnc1[C@@H]1c2n[nH]c(=O)c3cc(F)cc(c23)N[C@H]1C1CCN(C2CCC(F)(F)CC2)CC1 [Compound 0266A]

>  <Reading Unit>
nM

>  <IC50>
1680

$$$$
>  <Compound>
O=c1[nH]nc2c3c(cc(F)cc13)NC[C@@H]2c1ccccc1Cl [Compound 0120B]

>  <Reading Unit>
nM

>  <IC50>
47

$$$$
>  <Compound>
CN1CCCC[C@@H]1[C@H]1CNc2cc(F)cc3c(=O)[nH]nc1c23 [Compound 0192B]

>  <Reading Unit>
nM

>  <IC50>
22

$$$$
>  <Compound>
CC(C)[C@@H]1Nc2cc(F)cc3c(=O)[nH]nc(c23)[C@H]1c1c(F)cc(F)cc1F [Compound 0221B]

>  <Reading Unit>
nM

>  <IC50>
19

$$$$
>  <Compound>
O=c1[nH]nc2c3c(cc(F)cc13)N[C@@H](CF)[C@@H]2c1ccc(Cl)cc1F [Compound 0252A]

>  <Reading Unit>
nM

>  <IC50>
57

$$$$
>  <Compound>
O=c1[nH]nc2c3c(cc(F)cc13)N[C@@H](C1CCC(F)(F)CC1)[C@@H]2c1ccccc1Cl [Compound 0213B]

>  <Reading Unit>
nM

>  <IC50>
130

$$$$
